Data origin, for the record: patent US20080200403A1

System: IL-1α
protocol: Inhibition of IL-1 production by stimulated human peripheral blood leukocytes in vitro
Assay type: cell-based
protocol conditions: Homo sapiens, Leukocyte, PBL, zymosan stimulated, compound 10 μM; read-out: Percentage of inhibition of IL-1α production
For each of the compounds below, state its inhibition at 10 µM.
Answers are plain numbers, in %.

Value wanted: inhibition at 10 µM (IL-1α) of entry CC[C@H]1OC(=O)[C@H](C)[C@@H](O[C@H]2C[C@@](C)(OC)[C@@H](O)[C@H](C)O2)[C@H](C)[C@@H](O[C@@H]2O[C@H](C)C[C@H](N(C)C)[C@H]2O)[C@](C)(O)C[C@@H](C)CN(C(=S)Nc2cccc(C(F)(F)F)c2)[C@H](C)[C@@H](O)[C@]1(C)O 60

And then CC[C@H]1OC(=O)[C@H](C)[C@@H](O)[C@H](C)[C@@H](O[C@@H]2O[C@H](C)C[C@H](N(C)C)[C@H]2O)[C@](C)(O)C[C@@H](C)CN(C(=O)Nc2cccc(C(F)(F)F)c2)[C@H](C)[C@@H](O)[C@]1(C)O , what is it? 34

Consider the record given below.
So what inhibition at 10 µM did CC[C@H]1OC(=O)[C@H](C)[C@@H](O[C@H]2C[C@@](C)(OC)[C@@H](O)[C@H](C)O2)[C@H](C)[C@@H](O[C@@H]2O[C@H](C)C[C@H](N(C)C)[C@H]2O)[C@](C)(O)C[C@@H](C)CN(C(=O)Nc2ccc(C(F)(F)F)cc2)[C@H](C)[C@@H](O)[C@]1(C)O get with IL-1α? 65
